The reported measurements were obtained from paper PMC9458978.

# key: entry, value: melting point

{"smi": "CCCCC(=O)NS(=O)(=O)c1ccc(CCCC)cc1-c1cccc(Cn2cccn2)c1", "melting point": "140.1 to 141.3 °C"}
{"smi": "CC(C)COC(=O)NS(=O)(=O)c1ccc(CC(C)C)cc1-c1cccc(Cn2cccn2)c1", "melting point": "149.6 to 151.3 °C"}
{"smi": "CCCCC(=O)NS(=O)(=O)c1ccc(CC(C)C)cc1-c1cccc(Cn2cccn2)c1", "melting point": "125.8 to 126.7 °C"}
{"smi": "CC(C)COC(=O)NS(=O)(=O)c1ccc(CC(C)C)cc1-c1cccc(Cn2cncn2)c1", "melting point": "145.3 to 146.2 °C"}

###

- target-desc: AT2 receptor (Homo sapiens)
- Construct: expressed in transfected cells; host or cells: HEK-293
- Sequence (P50052 1-363): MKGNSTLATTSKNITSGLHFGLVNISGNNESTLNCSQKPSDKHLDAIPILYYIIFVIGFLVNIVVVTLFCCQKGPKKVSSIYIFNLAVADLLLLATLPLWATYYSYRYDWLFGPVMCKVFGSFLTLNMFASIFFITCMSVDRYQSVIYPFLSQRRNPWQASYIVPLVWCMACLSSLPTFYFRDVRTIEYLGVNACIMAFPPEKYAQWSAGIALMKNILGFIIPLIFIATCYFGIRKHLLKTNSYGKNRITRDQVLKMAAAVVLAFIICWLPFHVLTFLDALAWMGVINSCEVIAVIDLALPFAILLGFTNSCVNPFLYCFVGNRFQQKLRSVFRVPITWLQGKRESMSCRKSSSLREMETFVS
- experimental-protocol: HEK-293 cell AT2 receptor binding assay ([125I]-CGP42112 displacement, HEK293-hAT2R)
- details: displacement of [125I]-CGP42112, HEK293-hAT2R membranes; means ± SE, triplicate; read-out: Ki (nM) AT2R
parameter: Ki (nM)

{"smi": "CCCCOC(=O)NS(=O)(=O)c1ccc(CC(C)C)cc1-c1cccc(Cn2cccn2)c1", "target-desc": "AT2 receptor (Homo sapiens)", "unit-descriptor": "nM", "numeric-result": 1030}

###

- target-desc: AT1 receptor (Rattus norvegicus)
- Construct: Rat liver membranes were prepared according to the method of Dudley et al; from tissue; host or cells: rat liver membranes
- Sequence (P25095 whole entry): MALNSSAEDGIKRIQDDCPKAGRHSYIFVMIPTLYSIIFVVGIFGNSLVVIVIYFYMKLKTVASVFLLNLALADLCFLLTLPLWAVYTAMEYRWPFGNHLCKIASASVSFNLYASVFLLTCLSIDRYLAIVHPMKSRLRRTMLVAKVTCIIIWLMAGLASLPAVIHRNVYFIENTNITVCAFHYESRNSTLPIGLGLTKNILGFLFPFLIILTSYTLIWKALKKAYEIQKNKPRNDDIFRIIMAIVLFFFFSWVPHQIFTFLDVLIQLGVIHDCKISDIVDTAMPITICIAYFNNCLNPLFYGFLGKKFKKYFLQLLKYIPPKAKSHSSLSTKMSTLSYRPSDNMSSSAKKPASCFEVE
- experimental-protocol: Rat liver membrane AT1 receptor binding assay ([125I]-Ang II displacement)
- details: displacement of [125I]-Ang II, rat liver membranes; means ± SE, triplicate; read-out: Ki (nM) AT1R
- Procedure: The target compounds were evaluated for AT1 receptor binding affinity by displacement of [^125I]-Ang II from the AT1 receptor in rat liver membranes. The radio-iodinated AT2 receptor selective ligand [^125I]-CGP42112 was used to study AT2 receptor binding affinity in HEK-293 cells (HEK293-hAT2R) ([Dudley et al., 1990]; [Whitebread et al., 1991]). All of above methods were widely accepted and used to evaluate the binding activity of AT1 and AT2 receptors. […]
Measured Ki accompanies every entry in the list below.
parameter: Ki (nM)

{"smi": "CCCCc1ccc(S(=O)(=O)NC(=O)OCC(C)C)c(-c2cccc(Cn3cncn3)c2)c1", "numeric-result": 946}
{"smi": "CCCCOc1ccc(S(=O)(=O)NC(=O)CCCC)c(-c2cccc(Cn3cncn3)c2)c1", "numeric-result": 1250}
{"smi": "CCCCc1ccc(S(=O)(=O)NC(=O)OC(C)C)c(-c2cccc(Cn3cccn3)c2)c1", "numeric-result": 1720}
{"smi": "CCCCc1ccc(S(=O)(=O)NC(=O)OCC(C)C)c(-c2cccc(Cn3cccn3)c2)c1", "numeric-result": 1210}
{"smi": "CC(C)Cc1ccc(S(=O)(=O)NC(=O)OC(C)C)c(-c2cccc(Cn3cncn3)c2)c1", "numeric-result": 1790}
{"smi": "CCCCC(=O)NS(=O)(=O)c1ccc(CCCC)cc1-c1cccc(Cn2cncn2)c1", "numeric-result": 505}
{"smi": "CCCCOC(=O)NS(=O)(=O)c1ccc(CC(C)C)cc1-c1cccc(Cn2cccn2)c1", "numeric-result": 990}
{"smi": "CCCCOC(=O)NS(=O)(=O)c1ccc(OCCCC)cc1-c1cccc(Cn2cncn2)c1", "numeric-result": 889}
{"smi": "CCCCOC(=O)NS(=O)(=O)c1ccc(CC(C)C)cc1-c1cccc(Cn2cncn2)c1", "numeric-result": 846}
{"smi": "CCCCOC(=O)NS(=O)(=O)c1ccc(CCCC)cc1-c1cccc(Cn2cccn2)c1", "numeric-result": 1310}
{"smi": "CC(C)Cc1ccc(S(=O)(=O)NC(=O)OC(C)C)c(-c2cccc(Cn3cccn3)c2)c1", "numeric-result": 1550}
